- assay_text: Cell Viability - SK-N-SH (AID 435);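 further: compound exposure lasted 40 h at 37 °C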
- settings: SK-N-SH neuroblastoma cell viability qHTS
Results filed as inconclusive are left out. Active and inactive are the calls of the source. The call rests on the fitted dose curve.
In this exercise, the only acceptable responses are active, inactive

1) Cc1ccc2cccnc2c1
inactive

Input: Record request — test call for COc1ccc(N)c(C)c1
Output: inactive

----------
- assay_text: Cellular Toxicity (caspase-3) Mesangial (AID 660);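 further: combined caspase 3 and 7 activity read by Caspase-Glo luminescence; cells exposed to compound for 16 h before the caspase read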
- settings: mesangial cells, normalized: DMSO 0%, 100 µM tamoxifen 100%; at 91.7 µM (top of the series)
- From the text: NIH Chemical Genomics Center [NCGC] NIH Molecular Libraries Screening Centers Network [MLSCN] National Institutes of Environmental Health Sciences [NIEHS] National Toxicology Program [NTP] We have developed a 1536-well cell-based assay for quantitative high throughput screening (qHTS) against a number of cell lines to determine in vitro caspase 3/7 of small molecules. […] 8. Detection; Luminescence; Viewlux plate reader […]
caspase-3 activation for assorted compounds
Your answer should be a plain number; it is taken to be in %.

Measured caspase-3 activation of C=CC(=O)OCCCC : 0.429

Per the record, O=C(O)CNC(=O)c1ccc(CO)o1 has caspase-3 activation of -0.765

In plain terms, Cc1cccc(Br)c1 has a documented caspase-3 activation of -0.167

The reported value for CCOc1ccc(NC(C)=O)cc1N in terms of caspase-3 activation is 0.11

Form field caspase-3 activation, entry Cc1cccc(C(=O)O)c1[N+](=O)[O-] : 0.577

The compound identified as O=C(O)CN(CC(=O)O)CC(=O)O registered its caspase-3 activation at 1.04

// caspase-3 activation value for CC(C)Nc1ccccc1 : 1.26

Record summary for CCNS(=O)(=O)c1ccc(C)cc1 : reported caspase-3 activation = -0.106

Record CC(C)=CCC/C(C)=C/C=O . Reported caspase-3 activation: 0.108

The reported value for CC=O in terms of caspase-3 activation is 1.5

Entry c1ccc2[nH]cnc2c1 ; caspase-3 activation = 0.6

Data point: CC(=O)Nc1cccc(N)c1 ; caspase-3 activation = 0.0656

// Cc1ccc2nc(-c3ccc(N)cc3)sc2c1S(=O)(=O)O : caspase-3 activation value = -3.9

For reference, reported caspase-3 activation for Nc1cccc(C(F)(F)F)c1 stands at 2.31

For reference, reported caspase-3 activation for Cc1c(N)cccc1[N+](=O)[O-] stands at 0.18

The value of caspase-3 activation measured for the compound CCCCC/C=C/C=C/C=O turned out to be 0.621

----------
- assay_text: Cellular Toxicity (caspase-3) BJ (AID 658);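 further: cells exposed to compound for 16 hours; 0% = DMSO basal and 100% = 10 µM staurosporine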
- settings: BJ fibroblasts, luminescence, normalized: DMSO 0%, staurosporine 100%; series mostly up to 91.7 µM
Calls of active or inactive are those of the source. The call rests on the fitted dose curve; in most records, active means well fitted curve in the direction sought with a large enough effect; inconclusive means small, poorly fitted or top-dose-only effect, or another doubt; inactive means no such curve, though single readings can be large or run the other way.
measurement_kind: outcome

In the examples that follow, each entry is paired with its recorded outcome.
1) C=CCOC(=O)CCCCCCCC
inactive
2) CC(=O)c1cccc([N+](=O)[O-])c1
inactive
3) O=C(O)c1ccccc1C(=O)O
inactive
4) CCN(C(=O)N(CC)c1ccccc1)c1ccccc1
inactive

For CCCCN(CCO)CCCC the compound record lists outcome as inactive

# outcome (compound: Cc1ccc(Cl)cc1N ) is inactive

Memo: CCNS(=O)(=O)c1ccc(C)cc1 , reported outcome: inactive

Recorded result, Nc1ccccc1S(=O)(=O)O , outcome: inactive

Noted for O=Cc1ccccc1Cl : its outcome reads inactive
